Hello, the source for this data is patent US20230080224A1, in case you need it.

- target of assay: T1, human ALPPL2 (recombinant protein) (human, UniProt P10696 20-503)
- T1 chain: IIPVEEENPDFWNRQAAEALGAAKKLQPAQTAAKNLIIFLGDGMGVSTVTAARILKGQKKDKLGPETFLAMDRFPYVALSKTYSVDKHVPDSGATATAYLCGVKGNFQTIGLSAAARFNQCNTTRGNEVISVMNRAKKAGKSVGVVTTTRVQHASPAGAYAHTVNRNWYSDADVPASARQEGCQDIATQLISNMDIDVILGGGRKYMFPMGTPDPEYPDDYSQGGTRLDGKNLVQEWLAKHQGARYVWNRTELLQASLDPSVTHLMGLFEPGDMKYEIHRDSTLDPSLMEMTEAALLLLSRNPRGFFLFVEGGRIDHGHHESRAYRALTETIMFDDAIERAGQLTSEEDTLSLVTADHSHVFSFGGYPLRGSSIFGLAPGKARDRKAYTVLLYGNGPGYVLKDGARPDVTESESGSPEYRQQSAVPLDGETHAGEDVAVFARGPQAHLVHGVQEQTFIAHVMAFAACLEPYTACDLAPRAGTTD
- measurement protocol: BLI; single concentration
# Kd listing for each entry below
Entry rule: numbers only, all in nM.

Use the examples below as a reference point.
AB1C39 (antibody, V domains shown, Rabbit antibody cloned from a single B cell) VH: QSLEESGGDLVKPGASLTLTCTASGFSFSSSYYMCWVRQAPGKGLEWIACIYAGSSGGTYYASWAKGRFTISKTSSTTVTLQMTSLTAADTATYFCARAFSYYYSDGYTGYAYGLWGPGTLVTVSS VL: DIVMTQTPASVEAAVGGTVTIKCQASQSISSYLAWYQQKPGQPPKLLIYRASTLASGVPSRFKGSGSGTQFTLTISDLECADAATYYCQGAYYSSSSSYGFGGGTEVVVK; 2
AB2C136 (antibody, V domains shown, Rabbit antibody cloned from a single B cell) VH: QEQLEESGGDLVKPGASLTLTCTASGFSFNSNYYMCWVRQAPGKGLEWIACIYTGIVVPTYYASWAKGRFTISKTSSTTVTLQMTSLTAADTATYFCARDPYVGSSYIYNLWGPGTLVTVSS VL: LVMTQTPSPVSAAVGSTVTISCQSSQSVYNNNNLAWYQQKPGQPPKLLIYSASSLASGVPSRFKGSGSGTQFTLTISGVECDDAATYYCAGYKTYSNNENAFGGGTEVVVK; 0.1

Proceed to the following item.
Input: Entry AB1C10 (antibody, V domains shown, Rabbit antibody cloned from a single B cell) VH: QSLEESGGDLVKPGASLTLTCTASGFDFSSNGMCWVRQAPGKGLEWIACIYVDSSDNTNYASWVNGRFTISRTSSTTVTLQMTSLTAADTATYFCARGYGYVGSAMDLWGQGTLVTVSS VL: DIVMTQTPASVEAAVGGTVTIKCQASQSINNELSWYQQKPGQRPKLLIYGASTLESGVPSRFSGSGSGTEFTLTISDLECADAATYYCQSAYYSSSSSYANTFGGGTEVVVK has what Kd?
Output: 0.15
